Note to self: these compounds have IC50 reported for UniProt P22607 in various publications.

Recorded IC50, per entry:
CCN1CCC(n2cc(Nc3ncc(CCc4cc(C(=O)NC)cc(OC)c4Cl)cn3)cn2)CC1
18 nM
CNC(=O)c1cc(-c2cnn3cc(-c4ccc(C(C)(C)O)nc4)c(O[C@H]4CCOC4)nc23)c(F)c(C(F)F)c1
< 10 nM
COc1cc(OC)c(F)c(N2Cc3cnc(N)c(C#N)c3N(C)C2=O)c1F
< 100 nM
COc1cc(OC)c(F)c(N2Cc3cnc(NC4CCCC4)cc3C3(CC3)C2=O)c1F
< 100 nM
CCN1CCc2cc(-c3n[nH]c4nc(-c5c(Cl)c(OC)cc(OC)c5Cl)ncc34)ccc2C1=O
< 100 nM
CC(C(=O)N(C)C)n1cc(-c2cnn3c(-c4cccc(NC(=O)NCC(F)(F)F)c4)cnc3c2)cn1 (centres unmarked)
< 10 nM

Task item: # returns recorded IC50 (system: UniProt P22607) for `CNC(=O)c1cc(CCc2cnc(Nc3cnn(C4CCNCC4)c3)nc2)c(Cl)c(OC)c1`
Reply: 6 nM

Task item: Let us now turn to `O=C(NCC(F)(F)F)Nc1cccc(-c2cnc3cc(-c4cnn(C5CCN(C(=O)Nc6cccnc6)CC5)c4)cnn23)c1`
Reply: < 10 nM

Task item: Let us now turn to COc1cc(OC)c(Cl)c(-c2cc3[nH]nc(-c4cnn(C(C)C#N)c4)c3cn2)c1Cl (centres unmarked)
Reply: < 100 nM

Task item: Let us now turn to `CNC(=O)c1cc(OC)c(Cl)c(CCc2cnc(Nc3ccc(N4C[C@@H](C)N[C@@H](C)C4)cc3)nc2)c1F`
Reply: 17 nM

Task item: Let us now turn to `CNC(=O)c1cc(CCc2cnc(Nc3ccc4nnc(COC)n4c3)nc2)c(F)c(OC)c1`
Reply: 38 nM
